// provenance: patent US8791144B2

In this section we review reported melting point values for a set of compounds.

RECORD_SMILES | UNIT_LABEL | melting point
CC[C@H](O)Cc1cc(Nc2cccc(Cl)c2F)nn1-c1ccnc(C)c1 | °C | 168.2
CNC(=O)Cc1cc(Nc2cccc(OC(F)(F)F)c2)nn1-c1cc(C)nc(C)c1 | °C | 222
CNC(=O)Cc1cc(Nc2ccc3c(c2)OC(F)(F)O3)nn1-c1ccnc(C)c1 | °C | 271.2
CCNC(=O)Cc1cc(Nc2cccc(OC(F)(F)F)c2)nn1-c1cc(C)nc(C)c1 | °C | 224.2
Cc1cc(-n2nc(Nc3cccc(Cl)c3F)cc2CC(=O)NC2CC2)cc(C)n1 | °C | 222.9
COc1cc(Nc2cc(CC(=O)NC3CC3)n(-c3ccnc(C)c3)n2)cc(C(F)(F)F)c1 | °C | 251.3
CCNC(=O)Cc1cc(Nc2ccc(F)c(F)c2)nn1-c1ccnc(C)c1 | °C | 242.4
COc1cc(Cl)cc(Nc2cc(CC(=O)NC3CCC3)n(-c3ccnc(C)c3)n2)c1 | °C | 236.4
CC[C@@H](O)Cc1cc(Nc2cc(F)c(F)c(F)c2)nn1-c1ccnc(C)c1 | °C | 170.4
CC[C@H](O)Cc1cc(Nc2cccc(OC(F)(F)F)c2)nn1-c1ccnc(C)c1 | °C | 147.3
CC[C@H](O)Cc1cc(Nc2cccc(Cl)c2)nn1-c1ccnc(C)c1 | °C | 149.3
CC[C@H](O)Cc1cc(Nc2cc(F)c(F)cc2F)nn1-c1ccnc(C)c1 | °C | 166.6
CCNC(=O)Cc1cc(Nc2cccc(Cl)c2F)nn1-c1ccnc(C)c1 | °C | 205.1
Cc1cc(-n2nc(Nc3cccc(Cl)c3F)cc2CC(=O)NCC2CC2)ccn1 | °C | 220.5
COc1cc(Cl)cc(Nc2cc(CC(=O)NCC3CC3)n(-c3ccnc(C)c3)n2)c1 | °C | 248.7
Cc1cc(-n2nc(Nc3cccc(OC(F)(F)F)c3)cc2CC(=O)NC2CC2)ccn1 | °C | 224.6
Cc1cc(-n2nc(Nc3cccc(C(F)(F)F)c3)cc2CC(=O)NCC2CC2)ccn1 | °C | 207.5
CC[C@@H](O)Cc1cc(Nc2cccc(C(F)(F)F)c2)nn1-c1ccnc(C)c1 | °C | 170
COc1cc(Nc2cc(COCc3ccccc3)n(-c3ccnc(C)c3)n2)cc(C(F)(F)F)c1 | °C | 148.1
COC(=O)Cc1cc(Nc2cccc(OC(F)(F)F)c2)nn1-c1ccnc(C)c1 | °C | 115.8
Cc1cc(-n2nc(Nc3cccc(OC(F)(F)F)c3)cc2CC(=O)NCC2CC2)cc(C)n1 | °C | 199.4
CCNC(=O)Cc1cc(Nc2cccc(C(F)(F)F)c2)nn1-c1ccnc(C)c1 | °C | 228.9
CC[C@H](O)Cc1cc(Nc2cc(OC)cc(C(F)(F)F)c2)nn1-c1ccnc(C)c1 | °C | 129.2
Cc1cc(-n2nc(Nc3cccc(Cl)c3F)cc2CC(=O)NCC2CC2)cc(C)n1 | °C | 210.4
CCNC(=O)Cc1cc(Nc2cc(Cl)cc(OC)c2)nn1-c1ccnc(C)c1 | °C | 224
Cc1cc(-n2nc(Nc3ccc(F)c(F)c3)cc2COCc2ccccc2)ccn1 | °C | 171
CNC(=O)Cc1cc(Nc2cc(Cl)cc(OC)c2)nn1-c1ccnc(C)c1 | °C | 215
CC[C@@H](O)Cc1cc(Nc2cccc(Cl)c2F)nn1-c1ccnc(C)c1 | °C | 168.1
Cc1cc(-n2nc(Nc3cccc(OC(F)(F)F)c3)cc2COCc2ccccc2)ccn1 | °C | 139.8
COc1cc(Nc2cc(CC(=O)NC3CCC3)n(-c3ccnc(C)c3)n2)cc(C(F)(F)F)c1 | °C | 249.2
Cc1cc(-n2nc(Nc3cccc(OC(F)(F)F)c3)cc2CC(=O)NC2CCC2)ccn1 | °C | 227.7
Cc1cc(-n2nc(Nc3cccc(OC(F)(F)F)c3)cc2CC(=O)NCC2CC2)ccn1 | °C | 191.7
CNC(=O)Cc1cc(Nc2ccc(F)c(F)c2)nn1-c1ccnc(C)c1 | °C | 252.9
Cc1cc(-n2nc(Nc3ccc(F)c(F)c3)cc2CCCOCc2ccccc2)ccn1 | °C | 108.2
